- System Name: SARS-CoV-2 S-RBD with Avi-tag and deca-His tag (residues 330-531) (SARS-CoV-2, UniProt P0DTC2, biotin on the Avi tag (BirA) where immobilised on streptavidin sensors or used in ELISA and FSEC)
Parameter: binding result

>>> meas_value("MR7 (VHH) VHH: QVQLVESGGGLVQAGGSLRLSCAASGFPVNSWMEWYRQAPGKEREWVAAITSYGYKTYYADSVKGRFTISRDNAKNTVYLQMNSLKPEDTAVYYCNVKDEGYFSDEYDYWGQGTQVTVS")
"binds"
>>> meas_value("LR10 (VHH) VHH: QVQLVESGGGSVQAGGSLRLSCAASGTISSITYLGWFRQAPGKEREGVAALTTNNGHTYYADSVKGRFTVSLDNAKNTVYLQMNSLKPEDTALYYCAAADWGYDWPLDRYHYWYWGQGTQVTVS")
"binds"
